Biological target: CYP3A4 (Homo sapiens, UniProt P08684)
Sequence (P08684 whole entry): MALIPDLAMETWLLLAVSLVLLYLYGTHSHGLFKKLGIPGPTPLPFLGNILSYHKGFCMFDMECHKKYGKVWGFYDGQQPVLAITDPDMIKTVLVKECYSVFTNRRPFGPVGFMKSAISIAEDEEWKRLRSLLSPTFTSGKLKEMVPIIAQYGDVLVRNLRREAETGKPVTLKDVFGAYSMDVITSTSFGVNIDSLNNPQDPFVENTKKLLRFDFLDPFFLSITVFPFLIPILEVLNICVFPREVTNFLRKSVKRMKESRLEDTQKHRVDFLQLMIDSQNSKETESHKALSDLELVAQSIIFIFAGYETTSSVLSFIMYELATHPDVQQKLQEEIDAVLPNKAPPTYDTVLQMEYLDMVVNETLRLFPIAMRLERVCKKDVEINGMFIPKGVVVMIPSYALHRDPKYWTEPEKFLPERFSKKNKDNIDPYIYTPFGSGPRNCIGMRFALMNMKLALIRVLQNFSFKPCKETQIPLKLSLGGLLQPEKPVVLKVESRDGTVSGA
Assay: In vitro CYP3A4 inhibition
Format: biochemical
measured-metric: IC50 (nM)

compound="N#CC1(c2ccc(NC(=O)c3cccnc3NCc3ccncc3)cc2)CCCC1 [apatinib]" measured_metric=IC50 experimental_value=1800

* * *

Molecular target: CYP2C9 (Homo sapiens)
Sequence (P11712 whole entry): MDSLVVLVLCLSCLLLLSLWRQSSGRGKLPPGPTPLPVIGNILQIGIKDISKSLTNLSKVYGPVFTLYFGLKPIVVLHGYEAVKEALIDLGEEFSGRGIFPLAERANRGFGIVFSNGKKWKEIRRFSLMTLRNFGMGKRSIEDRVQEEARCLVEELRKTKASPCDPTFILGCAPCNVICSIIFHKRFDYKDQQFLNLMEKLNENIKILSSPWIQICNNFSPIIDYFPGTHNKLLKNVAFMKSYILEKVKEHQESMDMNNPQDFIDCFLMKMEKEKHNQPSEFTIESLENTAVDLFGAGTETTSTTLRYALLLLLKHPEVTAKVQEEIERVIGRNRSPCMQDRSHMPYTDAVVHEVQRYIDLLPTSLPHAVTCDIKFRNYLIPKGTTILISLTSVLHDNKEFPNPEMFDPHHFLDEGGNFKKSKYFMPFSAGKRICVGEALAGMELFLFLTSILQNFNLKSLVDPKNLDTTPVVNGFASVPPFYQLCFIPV
measured-metric: IC50 (nM)

compound="N#CC1(c2ccc(NC(=O)c3cccnc3NCc3ccncc3)cc2)CCCC1 [apatinib]" unit_abbreviation=nM experimental_value=440

* * *

Target: CYP3A4 (Homo sapiens)
Assay: In vitro CYP3A4 inhibition
Format: biochemical
measured-metric: IC50 (µM)

molecule="N#CC1(c2ccc(NC(=O)c3cccnc3NCc3ccncc3)cc2)CCCC1 [apatinib]" experimental_value=0.83

* * *

Target: CYP3A4 (Homo sapiens, UniProt P08684)
Test: In vitro CYP3A4 inhibition
Assay type: biochemical
measured-metric: Ki

compound="N#CC1(c2ccc(NC(=O)c3cccnc3NCc3ccncc3)cc2)CCCC1 [apatinib]" measured_metric=Ki experimental_value="270 nM"

* * *

Target: CYP3A4 (Homo sapiens)
Experiment: In vitro CYP3A4 inhibition
Assay type: biochemical
pKi: −log10 of the molar value.
measured-metric: pKi

structure_smiles_string=N#CC1(c2ccc(NC(=O)c3cccnc3NCc3ccncc3)cc2)CCCC1 system_tested="CYP3A4 (Homo sapiens)" experimental_value=6.15
